Biological target: T1, PTPN13-2 (human, UniProt Q12923 1368-1452)
T1 construct: PDZ domain number 2 of human PTPN13; also called PTPN13 PDZ dom 2; source: E. coli, in crude cell lysate; not shown: His, N-terminal, kept
T1 sequence (looked up): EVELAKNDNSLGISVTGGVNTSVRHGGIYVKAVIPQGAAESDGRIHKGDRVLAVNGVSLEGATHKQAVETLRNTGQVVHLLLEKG
Experiment: holdup assay; biotinylated PBM peptide saturating streptavidin resin (biotin resin as reference); tag-PDZ at 4 uM in crude E. coli lysate, 15 min, filtration, free tag-PDZ by capillary electrophoresis; singlicate; BI cut-off 0.20; BI converted into KD with the peptide concentration back-calculated from FP
Details: one partner purified
Where no end group is shown, it is not given here. The star is where a group is joined. Biotin = O=C1N[C@H]2[C@H](CS[C@H]2CCCCC(=O)*)N1; TTDS = NCCCOCCOCCOCCCNC(=O)CCC(=O)*
attribute-measured: Kd (µM)

{Biotin-TTDS}-PFDEDQHTQITKV (peptide, UniProt P60484 391-403, looked up, also called 13-mer PTEN peptide; extended wild-type peptide; source: synthetic peptide, bought: JPT Innovative Peptide Solutions (70%-80% purity)) [PTEN_13]
16
{Biotin-TTDS}-DEDQHTQITRV (peptide, UniProt P60484 393-403, looked up, also called K402R mutant; source: synthetic peptide (Chemical Peptide Synthesis Service of the IGBMC, Fmoc)) [PTEN_KR]
153
